Measured pKd, listed per entry.
# Target or system: T1, PDZD2_2, O15018
# T1 sequence (O15018 329-429, limits assumed, looked up): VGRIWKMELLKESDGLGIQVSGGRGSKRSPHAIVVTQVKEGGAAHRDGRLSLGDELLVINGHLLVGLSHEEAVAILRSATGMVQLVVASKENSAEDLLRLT
# Experiment summary: holdup assay
# Parameters: key: below the threshold = too weak to quantify, mostly under pKd 3.1 to 4
# Settings: plain residues with an end cap or a label only (N-terminal biotin on a linker: ado-ado)
Respond with the number and no other words.

Below, each entry is followed by its recorded pKd result.
Binder: MQHQRTHTRV [ZSCAN30, Q86W11]
Readout label: pKd
Assay value: 3.95
--
Binder: SLNANEVEWF [RNF130, Q86XS8]
Readout label: pKd
Assay value: 4.86

Given DPAESMESLV [PTPRG, P23470] , state its recorded pKd.
5.16

Entry under review: VKRNSKETVV [MARCHF3, Q86UD3] . Reported pKd?
4.17
